# testedOn: Thrombin (THR) (UniProt P00734;P00734 328-363;364-622)
# assayComment: SPR (D-shaped plastic optical fibre, Langmuir fit); 10 uM aptamer for immobilization; Langmuir K, printed as K [nM]; Immobilization in 10 mM phosphate, 138 mM NaCl, 2.7 mM KCl, pH 7.4; sensing in binding buffer (composition and temperature not given in material)
observable: pKd
Numbers only, as −log10 of the molar value.

Briefly, pKd measured for AGTCCGTGGTAGGGCAGGTTGGGGTGACT (ssDNA, 5' BiotinTEG) [TBA29 (biotin-TBA29 thrombin aptamer)] : 7.66

Where do these numbers come from? They come from paper PMC6904456.
